- ASSAYED_SYSTEM: HLA-B*44:05 (Homo sapiens, UniProt P01889, A223V/A65T/A93T/A95T/D201E/D98Y/E176V/E187L/E204Q/E69K/G107R/H137Y/K202T/L105A/L119I/N104T/N87E/Q56L/Q94N/R106L/R155S/R180D/S101N/S121R/S35A/S48T/T118I/V36M/W191S/Y91S)
- PROTOCOL_DESCRIPTION: MHC binding assay (UV-ligand exchange, β2m ELISA, peptide exchange yield)
- EXPERIMENTAL_PARAMETERS: binding to HLA-B*44:05
ASSAY_ENDPOINT: Peptide exchange (MHC class I binding score, peptide exchange yield)

In [3]: df
Out[3]:
                                  substance              result
0  309 (SDDLRNVTW; listed as Homo sapiens) [compound 309]  ++++ (>75% = ++++)
1  173 (SEHSLEGQKF; listed as Homo sapiens) [compound 173]     +++ (>50 = +++)
2  449 (RENDFEPKF; listed as Homo sapiens) [compound 449]     +++ (>50 = +++)
3  413 (TELEPGLTY; listed as Homo sapiens) [compound 413]     +++ (>50 = +++)
4  20 (LEALLSDLF; listed as Homo sapiens) [compound 20]     +++ (>50 = +++)
5  292 (HELALRQTV; listed as Homo sapiens) [compound 292]  ++++ (>75% = ++++)
6  253 (QEILHGAVRF; listed as Homo sapiens) [compound 253]     +++ (>50 = +++)
7  307 (YEQLLKVVTW; listed as Homo sapiens) [compound 307]  ++++ (>75% = ++++)
8  399 (IEQADWPEI; listed as Homo sapiens) [compound 399]      ++ (>20% = ++)
9  436 (AEADLSYTWDF; listed as Homo sapiens) [compound 436]     +++ (>50 = +++)

So what's the measured Peptide exchange (MHC class I binding score, peptide exchange yield) for this one? 248 (KESQLPTVMDF; listed as Homo sapiens) [compound 248]
+++ (>50 = +++)

Further, for 236 (LEDQLKPMLEW; listed as Homo sapiens) [compound 236] ?
+++ (>50 = +++)

And what about the substance 287 (REVSVVDIL; listed as Homo sapiens) [compound 287] ?
++++ (>75% = ++++)

14 (EMPGGPVW; listed as Homo sapiens) [compound 14] , same question.
+++ (>50 = +++)

Next substance up: 321 (AENPLNIFYI; listed as Homo sapiens) [compound 321]
+++ (>50 = +++)

Subsequent entry: 302 (EGEDAHLTQY; listed as Homo sapiens) [compound 302]
++ (>20% = ++)

Try this substance next: 269 (SEDLAVHL; listed as Homo sapiens) [compound 269]
++++ (>75% = ++++)

# iterate: 259 (IEVSSPITLQAL; listed as Homo sapiens) [compound 259]
++ (>20% = ++)

* * *

- ASSAYED_SYSTEM: HLA-B*44:05 (Homo sapiens, UniProt P01889, A223V/A65T/A93T/A95T/D201E/D98Y/E176V/E187L/E204Q/E69K/G107R/H137Y/K202T/L105A/L119I/N104T/N87E/Q56L/Q94N/R106L/R155S/R180D/S101N/S121R/S35A/S48T/T118I/V36M/W191S/Y91S)
- PROTOCOL_DESCRIPTION: MHC binding assay (UV-ligand exchange, β2m ELISA, peptide exchange yield)
- EXPERIMENTAL_PARAMETERS: binding to HLA-B*44:05
ASSAY_ENDPOINT: Peptide exchange (MHC class I binding score, peptide exchange yield)

>>> df
                                  substance           result
0  359 (NEFRRKLTF; listed as Homo sapiens) [compound 359]  +++ (>50 = +++)
1  226 (AEDNMVTSY; listed as Homo sapiens) [compound 226]  +++ (>50 = +++)
2  308 (EEPKIDFRVY; listed as Homo sapiens) [compound 308]  +++ (>50 = +++)

* * *

- ASSAYED_SYSTEM: HLA-B*44:05 (Homo sapiens, UniProt P01889, A223V/A65T/A93T/A95T/D201E/D98Y/E176V/E187L/E204Q/E69K/G107R/H137Y/K202T/L105A/L119I/N104T/N87E/Q56L/Q94N/R106L/R155S/R180D/S101N/S121R/S35A/S48T/T118I/V36M/W191S/Y91S)
- PROTOCOL_DESCRIPTION: MHC binding assay (UV-ligand exchange, β2m ELISA, peptide exchange yield)
- EXPERIMENTAL_PARAMETERS: binding to HLA-B*44:05
ASSAY_ENDPOINT: Peptide exchange (MHC class I binding score, peptide exchange yield)

                                  substance           result
0  344 (DEIRVFGY; listed as Homo sapiens) [compound 344]   ++ (>20% = ++)
1  29 (TENPKKFKI; listed as Homo sapiens) [compound 29]  +++ (>50 = +++)
2  61 (AEYSVHKI; listed as Homo sapiens) [compound 61]  +++ (>50 = +++)
3  266 (EEEDRDGHTW; listed as Homo sapiens) [compound 266]  +++ (>50 = +++)
4  392 (TEVSVLLLTF; listed as Homo sapiens) [compound 392]  +++ (>50 = +++)
5  382 (SELNPLALY; listed as Homo sapiens) [compound 382]  +++ (>50 = +++)

Endpoint output: Peptide exchange (MHC class I binding score, peptide exchange yield) of 178 (MEGAALLKIF; listed as Homo sapiens) [compound 178] . Value?
+++ (>50 = +++)

Please give the result for 122 (GESVSWHLF; listed as Homo sapiens) [compound 122] too.
+++ (>50 = +++)

Next substance up: 111 (QEIDQKRLEF; listed as Homo sapiens) [compound 111]
++ (>20% = ++)

* * *

- ASSAYED_SYSTEM: HLA-B*44:05 (Homo sapiens, UniProt P01889, A223V/A65T/A93T/A95T/D201E/D98Y/E176V/E187L/E204Q/E69K/G107R/H137Y/K202T/L105A/L119I/N104T/N87E/Q56L/Q94N/R106L/R155S/R180D/S101N/S121R/S35A/S48T/T118I/V36M/W191S/Y91S)
- PROTOCOL_DESCRIPTION: MHC binding assay (UV-ligand exchange, β2m ELISA, peptide exchange yield)
- EXPERIMENTAL_PARAMETERS: binding to HLA-B*44:05
ASSAY_ENDPOINT: Peptide exchange (MHC class I binding score, peptide exchange yield)

Some entries whose results are on file:
In [3]: df
Out[3]:
                                  substance              result
0  445 (QEVGEITNL; listed as Homo sapiens) [compound 445]     +++ (>50 = +++)
1  332 (SEADWLRFW; listed as Homo sapiens) [compound 332]  ++++ (>75% = ++++)
2  397 (EECGKAFSVF; listed as Homo sapiens) [compound 397]     +++ (>50 = +++)
3  320 (AENPLNIFY; listed as Homo sapiens) [compound 320]  ++++ (>75% = ++++)
4  363 (EECDKAFHF; listed as Homo sapiens) [compound 363]     +++ (>50 = +++)

Any idea what its Peptide exchange (MHC class I binding score, peptide exchange yield) is? The substance is 54 (QEISAHRTEF; listed as Homo sapiens) [compound 54]
+++ (>50 = +++)

Next: 204 (YERPTLVEL; listed as Homo sapiens) [compound 204]
+++ (>50 = +++)

* * *

- ASSAYED_SYSTEM: HLA-B*44:05 (Homo sapiens, UniProt P01889, A223V/A65T/A93T/A95T/D201E/D98Y/E176V/E187L/E204Q/E69K/G107R/H137Y/K202T/L105A/L119I/N104T/N87E/Q56L/Q94N/R106L/R155S/R180D/S101N/S121R/S35A/S48T/T118I/V36M/W191S/Y91S)
- PROTOCOL_DESCRIPTION: MHC binding assay (UV-ligand exchange, β2m ELISA, peptide exchange yield)
- EXPERIMENTAL_PARAMETERS: binding to HLA-B*44:05
ASSAY_ENDPOINT: Peptide exchange (MHC class I binding score, peptide exchange yield)

Record excerpt, results attached:
>>> print(df.to_string())
                                  substance              result
0  133 (IEAPKLMVV; listed as Homo sapiens) [compound 133]        + (>10% = +)
1  446 (AENIKKFLY; listed as Homo sapiens) [compound 446]     +++ (>50 = +++)
2  281 (HEIPQESL; listed as Homo sapiens) [compound 281]        + (>10% = +)
3  337 (VEVIPEGAML; listed as Homo sapiens) [compound 337]     +++ (>50 = +++)
4  326 (RELLDFSSW; listed as Homo sapiens) [compound 326]  ++++ (>75% = ++++)

GET /values?readout=Peptide exchange (MHC class I binding score, peptide exchange yield)&item= 70 (AEAEEAMKRL; listed as Homo sapiens) [compound 70]
+++ (>50 = +++)

// repeat for 207 (LEGGGRGGEF; listed as Homo sapiens) [compound 207] and report
++ (>20% = ++)

Item: 154 (NEAGEMIKHY; listed as Homo sapiens) [compound 154]
++ (>20% = ++)

Same again, this time with 220 (EEEVFSGMKL; listed as Homo sapiens) [compound 220]
++++ (>75% = ++++)
